The molecules listed here are annotated with their inhibition at 0.25 h, 25 ug/ml.
- subject-of-test: P-glycoprotein (ABCB1) (Homo sapiens, UniProt P08183)
- Sequence (P08183 whole entry): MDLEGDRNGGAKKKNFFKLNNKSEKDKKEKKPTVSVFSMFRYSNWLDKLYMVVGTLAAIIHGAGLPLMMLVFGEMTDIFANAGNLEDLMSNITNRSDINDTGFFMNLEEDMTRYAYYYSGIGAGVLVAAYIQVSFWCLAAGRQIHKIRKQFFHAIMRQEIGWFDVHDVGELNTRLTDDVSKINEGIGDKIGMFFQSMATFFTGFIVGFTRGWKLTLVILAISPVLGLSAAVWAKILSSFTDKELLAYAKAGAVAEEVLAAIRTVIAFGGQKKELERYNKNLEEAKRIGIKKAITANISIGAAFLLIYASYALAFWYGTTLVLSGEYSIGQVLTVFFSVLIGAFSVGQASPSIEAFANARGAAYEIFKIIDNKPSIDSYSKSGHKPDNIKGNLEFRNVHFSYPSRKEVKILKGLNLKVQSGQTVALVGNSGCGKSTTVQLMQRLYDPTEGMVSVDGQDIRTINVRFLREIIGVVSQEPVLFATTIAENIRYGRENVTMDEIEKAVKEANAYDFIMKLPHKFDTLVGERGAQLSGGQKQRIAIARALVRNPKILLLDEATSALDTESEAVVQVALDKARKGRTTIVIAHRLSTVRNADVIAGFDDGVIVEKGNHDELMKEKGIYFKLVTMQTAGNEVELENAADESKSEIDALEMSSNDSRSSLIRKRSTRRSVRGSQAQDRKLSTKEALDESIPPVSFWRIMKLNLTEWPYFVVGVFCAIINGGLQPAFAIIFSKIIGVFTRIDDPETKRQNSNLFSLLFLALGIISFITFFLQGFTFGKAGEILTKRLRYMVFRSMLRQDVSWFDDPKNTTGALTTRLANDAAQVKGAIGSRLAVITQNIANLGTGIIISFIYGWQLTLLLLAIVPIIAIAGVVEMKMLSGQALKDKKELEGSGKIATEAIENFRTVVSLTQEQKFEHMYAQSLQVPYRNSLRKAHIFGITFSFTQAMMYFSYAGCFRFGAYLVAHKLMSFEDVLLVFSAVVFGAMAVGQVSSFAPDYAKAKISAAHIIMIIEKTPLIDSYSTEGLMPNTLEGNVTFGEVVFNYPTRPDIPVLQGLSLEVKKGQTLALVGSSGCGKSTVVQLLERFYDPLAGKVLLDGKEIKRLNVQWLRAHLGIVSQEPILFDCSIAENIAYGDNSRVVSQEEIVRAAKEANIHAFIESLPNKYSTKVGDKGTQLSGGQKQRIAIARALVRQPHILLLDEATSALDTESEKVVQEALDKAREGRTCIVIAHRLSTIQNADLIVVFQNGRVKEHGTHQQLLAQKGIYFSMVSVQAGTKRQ
- assay-method-text: Inhibition of P-glycoprotein-mediated multidrug resistance in adriamycin-resistant human A2780 cells assessed as calcein accumulation at 25 ug/ml after 15 mins relative to verapamil
- Format: cell-based
- assay-setup: probe calcein
Entry format: amount then unit.

Examples with their reported inhibition at 0.25 h, 25 ug/ml follow.
Exercise: What value of measured inhibition at 0.25 h, 25 ug/ml is listed for "CC(C)[C@@H](C)/C=C/[C@@H](C)[C@H]1CC[C@H]2[C@@]3(O)C=C[C@@]4(O)C[C@@H](O)CC[C@]4(C)[C@H]3CC[C@]12C" ?
Key: 73%

Exercise: Please report the recorded inhibition at 0.25 h, 25 ug/ml for "COc1cc([C@@H]2O[C@H](c3cc(OC)c4c(c3)OCO4)[C@@H](COC(C)=O)[C@@H]2COC(C)=O)cc(OC)c1O" .
Key: 78%

Exercise: Returns the measured inhibition at 0.25 h, 25 ug/ml for the input molecule. Input: "COc1cc([C@H]2O[C@@H](c3cc(OC)c4c(c3)OCO4)[C@@H](COC(C)=O)[C@@H]2CO)cc2c1OCO2"
Key: 72%

Now examine the next entry.
Exercise: Given "COc1cc([C@@H]2O[C@H](c3cc(OC)c4c(c3)OCO4)[C@@H](COC(C)=O)[C@@H]2CO)cc(OC)c1OC" , state its recorded inhibition at 0.25 h, 25 ug/ml.
Key: 107%
